biological target: HSD17B13 (Homo sapiens (Human)); experiment: HSD17B13 enzymatic inhibition assay (150 nM or 50 nM HSD17B13); assay type: biochemical; details: 50 nM HSD17B13; read-out: Inhibition of 50 nM of HSD17B13 IC50
Sequence (Q7Z5P4 other isoform, or with tags, fused parts or gaps): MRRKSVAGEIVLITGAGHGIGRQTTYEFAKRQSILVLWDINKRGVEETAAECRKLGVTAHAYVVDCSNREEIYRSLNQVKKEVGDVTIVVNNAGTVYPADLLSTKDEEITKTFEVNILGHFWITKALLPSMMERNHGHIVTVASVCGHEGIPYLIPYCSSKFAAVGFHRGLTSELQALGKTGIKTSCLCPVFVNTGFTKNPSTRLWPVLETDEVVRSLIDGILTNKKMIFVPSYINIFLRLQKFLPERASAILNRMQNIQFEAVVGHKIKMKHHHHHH
pIC50: −log10 of the molar value.
quantity: pIC50

Known results for compounds:
>>> recorded_result("Cc1ccc2c(c1)OCC2NC(=O)c1ccc(C(F)(F)F)[nH]c1=O (stereo not drawn)")
5.04
>>> recorded_result("CC(F)(F)c1ccc(C(=O)NC2c3ccccc3Sc3ccccc32)c(=O)[nH]1")
6.10

(a) Cc1ccc2c(c1)C(NC(=O)c1ccc(C(F)(F)F)[nH]c1=O)CCS2 (stereo not drawn)
(b) Cc1ccc2[nH]cc(NC(=O)c3ccc(C(F)(F)F)[nH]c3=O)c2c1
(c) COc1ccc2c(c1)Sc1cc(N)ccc1C2NC(=O)c1ccc(C(F)(F)F)[nH]c1=O (stereo not drawn)
Put the items in sequence by pIC50, from largest down. Answer by naming the labels in the order asked.
c, a, b
(c: 7.10, a: 6.13, b: 5.11)

---

assay: Microsome stability assay, mouse liver microsomes; assay type: in vitro ADME; conditions: mouse, mouse liver microsomes, pooled; 1 μM compound, 0.5 mg/mL microsomal protein, NADPH, 37° C.; read-out: Microsome Stability Mouse liver microsomes Cl
quantity: microsomal CLint at 1 h, 1 µM (µL/min/mg)

>>> recorded_result("COc1ccc2c(c1)Sc1cc(OC)ccc1C2NC(=O)c1ccc(C(F)(F)F)[nH]c1=O")
13.4

(I) Cc1cccc(C(NC(=O)c2ccc(C(F)(F)F)[nH]c2=O)c2ccccc2)c1 (centres unmarked)
(II) CCCC1=Cc2cc(C)ccc2C1NC(=O)c1ccc(C(F)(F)F)[nH]c1=O (centres unmarked)
When I and II are compared, which has the higher number for microsomal CLint at 1 h, 1 µM? Your answer should be the label of the entry you select.
I

(A) CCC1Cc2cc(C)ccc2C1NC(=O)c1ccc(C(F)(F)F)[nH]c1=O (centres unmarked)
(B) Cc1ccc2c(c1)SC(C)CC2NC(=O)c1ccc(C(F)(F)F)[nH]c1=O (centres unmarked)
When A and B are compared, which has the higher number for microsomal CLint at 1 h, 1 µM? Your answer should be the label of the entry you select.
A
(A: 45.1 µL/min/mg, B: 27 µL/min/mg)

(A) CCC1CCc2cc(OC)ccc2C1NC(=O)c1ccc(C(F)(F)F)[nH]c1=O (centres unmarked)
(B) Cc1ccc(C(NC(=O)c2ccc(C(F)(F)F)[nH]c2=O)c2ccc(C)cc2)cc1
When A and B are compared, which has the higher number for microsomal CLint at 1 h, 1 µM? Your answer should be the label of the entry you select.
B

---

molecular target: UniProt:Q7Z5P4; experiment: HSD17B13 enzymatic inhibition assay (150 nM or 50 nM HSD17B13); type: biochemical; settings: 50 nM HSD17B13; read-out: Inhibition of 50 nM of HSD17B13 IC50
pIC50: −log10 of the molar value.
quantity: pIC50

Known results for compounds:
>>> recorded_result("CCC1CCc2cc(C)ccc2C1NC(=O)c1ccc(C(F)(F)F)[nH]c1=O (stereo not shown)")
7.30
>>> recorded_result("Cc1ccc2c(c1)Oc1cc(C)ccc1C2NC(=O)c1cc(OC2CCOCC2)c(C(F)(F)F)[nH]c1=O")
7.70
>>> recorded_result("COc1c(C)ccc2c1CCC2NC(=O)c1ccc(C(F)(F)F)[nH]c1=O (stereo not shown)")
5.15
>>> recorded_result("Cc1ccc2c(c1)S(=O)(=O)c1cc(C)ccc1C2NC(=O)c1cc(CO)c(C(F)(F)F)[nH]c1=O")
6.85
>>> recorded_result("N#Cc1ccc2c(c1)C(NC(=O)c1ccc(C(F)(F)F)[nH]c1=O)c1ccccc1O2 (stereo not shown)")
6.19
>>> recorded_result("COc1ccc2c(c1)C(NC(=O)c1ccc(C(F)(F)F)[nH]c1=O)c1ccncc1O2 (stereo not shown)")
6.08
>>> recorded_result("COc1ccc2c(c1)Oc1cc(OC)ccc1C2NC(=O)c1cc(-c2ccccc2)c(C(F)(F)F)[nH]c1=O")
7.00
>>> recorded_result("O=C(NC1CCc2c(O)cccc21)c1ccc(C(F)(F)F)[nH]c1=O (stereo not shown)")
5.95

(A) Cc1ccc2c(c1)Oc1cccc(C)c1C2NC(=O)c1cc(-c2ccncc2)c(C(F)(F)F)[nH]c1=O (stereo not shown)
(B) COc1ccc2c(c1)Oc1ccccc1C2NC(=O)c1ccc(C(F)(F)F)[nH]c1=O (stereo not shown) [Compound 197]
(C) Cc1ccc(C(NC(=O)c2cc(C)c(C(F)(F)F)[nH]c2=O)c2ccc(C)cc2)cc1
Put the items in sequence by pIC50, from largest down. Answer by naming the labels in the order asked.
A, C, B
